- Tested on: L. infantum promastigotes
- Method description: apoptosis/necrosis profiling, annexin V/PI staining, promastigotes
- Type: cell-based, Leishmania infantum
- Details: 1× IC50, 24 h
- Experimental: To evaluate both apoptosis and necrosis, promastigote forms of L. infantum in the log phase of growth were incubated at several concentrations based on the IC50 values of LQOFG-2 (6.35; 12.7, 25.4, and 50.8 µM) LQOFG-6 (12.2, 24.4, 48.8 and 97.6 µM), and LQOFG-7 (11.65, 23.3, 46.6 and 93.2 µM), and AmB (1.5 and 6 µM) was used as the positive control. The plates were incubated for 24 h at 26 °C ± 1 °C in a B.O.D. incubator. […]
Measured % cells, Late Apoptosis (AV+, PI+) of individual entries
The answer is to be given in %; state only the numeric part.

Compound	Output unit	% cells, Late Apoptosis (AV+, PI+)
CC(C)(C)c1ccc(N/C(=N\C(=O)c2ccccc2)NCc2ccccc2)cc1	%	0.20
O=C(/N=C(/NCc1ccccc1)Nc1ccc(Br)cc1)c1ccccc1	%	0.41
O=C(/N=C(/NCc1ccccc1)Nc1ccc(I)cc1)c1ccccc1	%	0.41

With those in mind, consider the next compound.
Tell me the measured % cells, Late Apoptosis (AV+, PI+) of C[C@@H]1[C@H](O)[C@@H](C)/C=C/C=C/C=C/C=C/C=C/C=C/C=C/[C@H](O[C@@H]2O[C@H](C)[C@@H](O)[C@H](N)[C@@H]2O)C[C@@H]2O[C@](O)(C[C@@H](O)C[C@@H](O)[C@H](O)CC[C@@H](O)C[C@@H](O)CC(=O)O[C@H]1C)C[C@H](O)[C@H]2C(=O)O [Amphotericin B, reference compound] , please.
4.30
